Tested on: MDA-MB-468
Protocol Text: Growth inhibition of human MDA-MB-468 cells assessed as cell growth at 10 uM incubated for 48 hrs by sulforhodamine B assay relative to control
Type: functional
Condition Set: MDA-MB-468, 48 h, read-out: Activity
growth at 10 µM values for the compounds below.
Write the answer as a number in %, unit excluded.

// solved cases for growth at 10 µM follow
Entry under test: COc1cc(Cl)cc(-c2nn(-c3cccc(NC(=O)Nc4cccc(C(F)(F)F)c4)c3)cc2-c2ccncc2)c1 . Its growth at 10 µM was 6.89

Entry under test: O=C(Nc1cccc(-n2cc(-c3ccncc3)c(-c3cc(O)cc(Cl)c3)n2)c1)c1cc(C(F)(F)F)cc(C(F)(F)F)c1 . Its growth at 10 µM was 31.2

Entry under test: COc1cc(Cl)cc(-c2nn(-c3cccc(NC(=O)Nc4ccc(Cl)c(Cl)c4)c3)cc2-c2ccncc2)c1 . Its growth at 10 µM was 0.72

Entry under test: COc1cc(Cl)cc(-c2nn(-c3cccc(NC(=O)Nc4ccc(Cl)c(C(F)(F)F)c4)c3)cc2-c2ccncc2)c1 . Its growth at 10 µM was -14.4

Entry under test: O=C(Nc1cccc(-n2cc(-c3ccncc3)c(-c3cc(O)cc(Cl)c3)n2)c1)Nc1ccc(Cl)c(C(F)(F)F)c1 . Its growth at 10 µM was 5.22

Now for another entry.
Entry under test: COc1cc(Cl)cc(-c2nn(-c3cccc(NC(=O)c4cccc(C(F)(F)F)c4)c3)cc2-c2ccncc2)c1 . Its growth at 10 µM was 47
